All figures here come from PubChem BioAssay AID2060484.

- System: SUM149PT spheroids with HUVEC/MSC, viability
- protocol: Anticancer human tumor SUM149PT cell line growth inhibition [GQUAD];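 also: spheroids exposed to drugs for seven days before readout; percent viability relative to DMSO vehicle control taken as 100%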
- test-context: second compound 0.1 µM; first compound 3.16 µM; hits give low values
Hi there, I'd appreciate the recorded viability, T/C for every entry that follows.

CC(=O)O[C@H]1C(=O)[C@@]2(C)[C@H]([C@H](OC(=O)c3ccccc3)[C@]3(O)C[C@H](OC(=O)[C@H](O)[C@@H](NC(=O)c4ccccc4)c4ccccc4)C(C)=C1C3(C)C)[C@]1(OC(C)=O)CO[C@@H]1C[C@@H]2O + CN(C)c1ccc(Nc2c3ccc(NC(=O)CCN4CCCC4)cc3nc3cc(NC(=O)CCN4CCCC4)ccc23)cc1 :: 19.6%

List viability, T/C for every entry below, keeping the order given.
1. COc1ncnc(C2CC2)c1-c1ncc2cnn(Cc3ccc(-c4nc(C(F)(F)F)cn4C(C)C)cc3)c2n1 + Cc1cnc(CNC(=O)c2c(=O)c3ccc(N4CCCN(C)CC4)nc3n3c2sc2ccccc23)cn1
2. COc1cc(C2c3cc4c(cc3C(OC3OC5COC(C)OC5C(O)C3O)C3COC(=O)C23)OCO4)cc(OC)c1O (centres undefined) + Cc1[nH]c2ccc(F)cc2c1-c1nc2c3cccnc3c3ncccc3c2[nH]1
3. Nc1ccn(C2OC(CO)C(O)C2(F)F)c(=O)n1 (centres undefined) + Cc1[nH]c2ccc(F)cc2c1-c1nc2c3cccnc3c3ncccc3c2[nH]1

1. 57.1%
2. 36.8%
3. 16%

###

- Tested on: SUM149PT spheroids with HUVEC/MSC, viability
- protocol: Anticancer human tumor SUM149PT cell line growth inhibition [GQUAD];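 also: spheroids exposed to drugs for seven days before readout; percent viability relative to DMSO vehicle control taken as 100%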
- test-context: second compound 1 µM; first compound 0.0316 µM; hits give low values
Please respond with satisfied when measured viability, T/C is strictly beneath 90%, and with not satisfied in all other cases.

C=CC(=O)N1CCN(c2nc(=O)n(-c3c(C)ccnc3C(C)C)c3nc(-c4c(O)cccc4F)c(F)cc23)C(C)C1 (configuration not stated) + Cc1[nH]c2ccc(F)cc2c1-c1nc2c3cccnc3c3ncccc3c2[nH]1 :: not satisfied
Cn1ncnc1[C@H]1c2n[nH]c(=O)c3cc(F)cc(c23)N[C@@H]1c1ccc(F)cc1 + Cc1cnc(CNC(=O)c2c(=O)c3ccc(N4CCCN(C)CC4)nc3n3c2sc2ccccc23)cn1 :: satisfied
CC(C)n1c(=O)n(C)c2cnc3cc(F)c(-c4ccc(OCCCN5CCCCC5)nc4)cc3c21 + CN(C)c1ccc(Nc2c3ccc(NC(=O)CCN4CCCC4)cc3nc3cc(NC(=O)CCN4CCCC4)ccc23)cc1 :: satisfied
Cc1[nH]c2ccccc2c1CCNCc1ccc(/C=C/C(=O)NO)cc1 + Cc1[nH]c2ccc(F)cc2c1-c1nc2c3cccnc3c3ncccc3c2[nH]1 :: not satisfied
CC(C)(O)C1CCC(Nc2ccc3ncc(-c4cccc(C(F)(F)F)c4)n3n2)CC1 (configuration not stated) + Cc1[nH]c2ccc(F)cc2c1-c1nc2c3cccnc3c3ncccc3c2[nH]1 :: not satisfied

A record lists COc1cc(C2c3cc4c(cc3C(OC3OC5COC(C)OC5C(O)C3O)C3COC(=O)C23)OCO4)cc(OC)c1O (configuration not stated) + Cc1cnc(CNC(=O)c2c(=O)c3ccc(N4CCCN(C)CC4)nc3n3c2sc2ccccc23)cn1 . Is its viability, T/C below 90%?
satisfied
